- SYSTEM TESTED: T1, extracellular domain of human CD73 protein (CD73-ECD), C-terminus polyhistidine-tagged (human, UniProt P21589 27-547)
- T1 construct: also called Human CD73-ECD; human recombinant CD73 enzyme (CD73 extracellular domain)
- T1 sequence: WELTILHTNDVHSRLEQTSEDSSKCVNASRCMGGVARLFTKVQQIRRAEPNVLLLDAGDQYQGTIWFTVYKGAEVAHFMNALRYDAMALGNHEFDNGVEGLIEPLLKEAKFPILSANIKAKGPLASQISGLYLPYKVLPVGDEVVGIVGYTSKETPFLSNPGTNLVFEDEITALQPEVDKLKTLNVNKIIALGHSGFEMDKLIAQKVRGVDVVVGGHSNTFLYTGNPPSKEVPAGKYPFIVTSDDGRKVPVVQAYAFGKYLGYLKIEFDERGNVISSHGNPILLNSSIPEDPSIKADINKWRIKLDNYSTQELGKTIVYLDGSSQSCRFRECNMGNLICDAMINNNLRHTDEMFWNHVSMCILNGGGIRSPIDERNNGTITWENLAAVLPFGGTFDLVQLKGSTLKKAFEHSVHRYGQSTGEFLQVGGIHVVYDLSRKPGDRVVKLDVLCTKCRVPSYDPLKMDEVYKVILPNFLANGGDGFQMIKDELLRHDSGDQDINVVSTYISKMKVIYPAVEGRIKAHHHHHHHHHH
- METHOD DESCRIPTION: ELISA, coated CD73-ECD
MEASURED PROPERTY: binding result

So for Hu001c-14 (antibody, V domains shown, Humanized) VH: QVQLVQSGAEVKKPGASVKVSCKTSGYTFTNYYIYWVRQAPGQRLEWMGWIYPGNLNIKYNEKFKGRVTITADTSASTAYMELSSLRSEDTAVYYCARDDNYAWFAYWGQGTLVTVSS VL: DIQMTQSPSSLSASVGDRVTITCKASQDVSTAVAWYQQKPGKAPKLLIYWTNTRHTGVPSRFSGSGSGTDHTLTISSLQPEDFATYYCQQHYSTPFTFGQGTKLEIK , the logged binding result turned out to be binds

So for Hu002c-2 (antibody, V domains shown, Humanized) VH: QVQLVQSGAEVKKPGASVKVSCKASGYTLTSYWMHWVRQAPGQGLEWMGEINPSQGRSNYNEKFKSRVTMTRDTSTSTVYMELSSLRSEDTAVYYCARRGVSGNYFDYWGQGTLVTVSS VL: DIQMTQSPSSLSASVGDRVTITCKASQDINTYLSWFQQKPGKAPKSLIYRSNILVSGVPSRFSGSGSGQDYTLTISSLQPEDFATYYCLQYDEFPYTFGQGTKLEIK , the logged binding result turned out to be binds

Numbers sourced from patent US20210024646A1.
